Overview of reported melting point across a group of molecules:
Where a name gives a salt, the structure may show the parent alone.

Sample records with melting point:
1) Cc1nc(C)c(Cc2nc3c(F)c(F)cc(F)c3s2)cc1CC(=O)O.Cl; 211 °C (dec.)
2) O=C(O)Cc1cc(Cc2nc3c(F)c(F)cc(F)c3s2)cnc1-c1ccccc1 (as salt: hydrochloride); 110 °C (dec.)
3) O=C(O)Cc1cnc(Cc2ccccc2)c(Cc2nc3c(F)c(F)cc(F)c3s2)c1 (as salt: hydrochloride); 185 °C (dec.)
4) O=C(O)Cc1cc(Cc2nc3c(F)c(F)cc(F)c3s2)cnc1Cc1ccccc1 (as salt: hydrochloride); 175 °C (dec.)
5) Cc1sc(C)c(Cc2nc3c(F)c(F)cc(F)c3s2)c1CC(=O)O; 170 to 171 °C

// query melting point value for entry CCc1c(CC(=O)O)c(C)nc(C)c1Cc1nc2c(F)c(F)cc(F)c2s1 (as salt: hydrochloride)
193 to 195 °C

Consider next the molecule CCc1ncc(CC(=O)O)cc1Cc1nc2c(F)c(F)cc(F)c2s1 (as salt: hydrochloride) in the same way.
220 °C (dec.)

---

Target: human aldose reductase (hALR2) (Homo sapiens, UniProt P15121)
Assay: inhibition of human aldose reductase (hALR2) activity, methods similar to Butera et al.
Type: biochemical
Settings: concentration to inhibit activity by 50%, read-out: hAR-#1 (aldose)
pIC50: −log10 of the molar value. Structures can show the parent of a compound that is named as a salt.
reported_metric: pIC50

Sample records with pIC50:
1. Cc1nc(C)c(Cc2nc3c(F)c(F)cc(F)c3s2)cc1CC(=O)O.Cl [Example 4, hydrochloride]; 8.40
2. O=C(O)Cc1cc(Cc2nc3c(F)c(F)cc(F)c3s2)cs1; 8.05
3. Cc1sc(C)c(Cc2nc3c(F)c(F)cc(F)c3s2)c1CC(=O)O; 7.44
4. O=C(O)Cc1cc(Cc2nc3c(F)c(F)cc(F)c3s2)cnc1-c1ccccc1 [Example 13, hydrochloride]; 8.10
5. CCc1nc(CC)c(Cc2nc3c(F)c(F)cc(F)c3s2)cc1CC(=O)O.Cl [Example 5, hydrochloride]; 8.15

1: O=C(O)Cc1cncc(Cc2nc3c(F)c(F)cc(F)c3s2)c1 [Example 8, hydrochloride]
2: CCc1c(CC(=O)O)c(C)nc(C)c1Cc1nc2c(F)c(F)cc(F)c2s1 [Example 10, hydrochloride]
Thinking about recorded pIC50 values, which is higher, 1 or 2 ? When you have decided, please share the label of that item.
1

---

reported_metric: melting point

Sample records with melting point:
1) O=C(O)Cc1cc(Cc2nc3c(F)c(F)cc(F)c3s2)cs1; 144 to 146 °C
2) CCCc1nc(CCC)c(Cc2nc3c(F)c(F)cc(F)c3s2)cc1CC(=O)O.Cl; 98 to 100 °C

Next up:
// query melting point value for entry Cl.O=C(O)Cc1cc(Cc2nc3c(F)c(F)cc(F)c3s2)c(-c2ccccc2)nc1-c1ccccc1
84 to 86 °C

---

Reported IC50 for target or system human aldose reductase (hALR2) (Homo sapiens), by entry.
Where a name gives a salt, the structure may show the parent alone.
reported_metric: IC50 (nM)

Sample records with IC50:
1. CCc1ncc(Cc2nc3c(F)c(F)cc(F)c3s2)cc1CC(=O)O [Example 11, hydrochloride]; 6
2. CCc1ncc(CC(=O)O)cc1Cc1nc2c(F)c(F)cc(F)c2s1 [Example 14, hydrochloride]; 7
3. Cc1nc(C)c(Cc2nc3c(F)c(F)cc(F)c3s2)c(C)c1CC(=O)O [Example 9, hydrochloride]; 6
4. O=C(O)Cc1cc(Cc2nc3c(F)c(F)cc(F)c3s2)cnc1Cc1ccccc1 [Example 12, hydrochloride]; 5

P: CCCc1nc(CCC)c(Cc2nc3c(F)c(F)cc(F)c3s2)cc1CC(=O)O.Cl [Example 7, hydrochloride]
Q: Cl.O=C(O)Cc1cc(Cc2nc3c(F)c(F)cc(F)c3s2)c(-c2ccccc2)nc1-c1ccccc1 [Example 6, hydrochloride]
Identify the item whose IC50 is the smaller number: P or Q When you have decided, please share the label of that item.
P
(P: 7 nM, Q: 11 nM)

All figures here come from patent US7361671B2.
